Field: selectivity ratio. Provide a value for each of the molecules that follow.
Test: Therapeutic index (IC50/EC50) was determined
Conditions: read-out: TI

Summary for this molecule, Cc1cc(=O)oc2c3c(c(CBr)cc12)OC(C)(C)[C@H](OC(=O)C12CCC(C)(C(=O)O1)C2(C)C)[C@@H]3OC(=O)C12CCC(C)(C(=O)O1)C2(C)C (some centres not stated) : selectivity ratio is > 88

Summary for this molecule, CC(=O)OCc1cc2c(C)cc(=O)oc2c2c1OC(C)(C)[C@H](OC(=O)C13CCC(C)(C(=O)O1)C3(C)C)[C@@H]2OC(=O)C12CCC(C)(C(=O)O1)C2(C)C (some centres not stated) : selectivity ratio is > 26

Summary for this molecule, CC1(C)Oc2ccc3ccc(=O)oc3c2[C@@H](OC(=O)C23CCC(C)(C(=O)O2)C3(C)C)[C@H]1OC(=O)C12CCC(C)(C(=O)O1)C2(C)C (some centres not stated) : selectivity ratio is > 328

Summary for this molecule, CCN(CC)Cc1cc2ccc3c(c2oc1=O)[C@@H](OC(=O)C12CCC(C)(C(=O)O1)C2(C)C)[C@@H](OC(=O)C12CCC(C)(C(=O)O1)C2(C)C)C(C)(C)O3 (some centres not stated) : selectivity ratio is > 4

Summary for this molecule, Cc1cc(=O)oc2c3c(c(CN)cc12)OC(C)(C)[C@H](OC(=O)C12CCC(C)(C(=O)O1)C2(C)C)[C@@H]3OC(=O)C12CCC(C)(C(=O)O1)C2(C)C (some centres not stated) : selectivity ratio is > 102

Summary for this molecule, Cc1cc(=O)oc2c3c(c(CO)cc12)OC(C)(C)[C@H](OC(=O)C12CCC(C)(C(=O)O1)C2(C)C)[C@@H]3OC(=O)C12CCC(C)(C(=O)O1)C2(C)C (some centres not stated) : selectivity ratio is > 135

Summary for this molecule, Cc1c(CBr)c(=O)oc2c3c(ccc12)OC(C)(C)[C@H](OC(=O)C12CCC(C)(C(=O)O1)C2(C)C)[C@@H]3OC(=O)C12CCC(C)(C(=O)O1)C2(C)C (some centres not stated) : selectivity ratio is > 190000

* * *

Test: Bioavailability in male Sprague-Dawley rats following an intravenous bolus dose at 10-20 mg/kg
Assay type: ADME, organism-based
Conditions: rat, in vivo
quantity: bioavailability (%)
Form entry: value (%) — number only.

Summary for this compound, Cc1c(CO)c(=O)oc2c3c(ccc12)OC(C)(C)[C@H](OC(=O)C12CCC(C)(C(=O)O1)C2(C)C)[C@@H]3OC(=O)C12CCC(C)(C(=O)O1)C2(C)C (stereo partly specified) : bioavailability is 15

* * *

Assay: Therapeutic index (IC50/EC50) was determined
Settings: read-out: TI
quantity: selectivity ratio
Lab note: jot the number down without any unit.

Summary for this molecule, CC(=O)OCc1cc2ccc3c(c2oc1=O)[C@@H](OC(=O)C12CCC(C)(C(=O)O1)C2(C)C)[C@@H](OC(=O)C12CCC(C)(C(=O)O1)C2(C)C)C(C)(C)O3 (stereo partly specified) : selectivity ratio is 676

Summary for this molecule, CC(=O)OCc1c(C)c2ccc3c(c2oc1=O)[C@@H](OC(=O)C12CCC(C)(C(=O)O1)C2(C)C)[C@@H](OC(=O)C12CCC(C)(C(=O)O1)C2(C)C)C(C)(C)O3 (stereo partly specified) : selectivity ratio is 567

Summary for this molecule, CC1(C)Oc2ccc3cc(CO)c(=O)oc3c2[C@@H](OC(=O)C23CCC(C)(C(=O)O2)C3(C)C)[C@H]1OC(=O)C12CCC(C)(C(=O)O1)C2(C)C (stereo partly specified) : selectivity ratio is 806

Summary for this molecule, Cc1c(CO)c(=O)oc2c3c(ccc12)OC(C)(C)[C@H](OC(=O)C12CCC(C)(C(=O)O1)C2(C)C)[C@@H]3OC(=O)C12CCC(C)(C(=O)O1)C2(C)C (stereo partly specified) : selectivity ratio is 5800

* * *

Field: T1/2. Provide a value for each of the molecules that follow.
System: Rattus norvegicus
Assay: Half-life in male Sprague-Dawley rats following an intravenous bolus dose at 10-20 mg/kg
Assay type: ADME, organism-based
Conditions: in vivo
Form entry: value (h) — number only.

Summary for this molecule, Cc1cc(=O)oc2c3c(ccc12)OC(C)(C)[C@H](OC(=O)C12CCC(C)(C(=O)O1)C2(C)C)[C@@H]3OC(=O)C12CCC(C)(C(=O)O1)C2(C)C (stereo partly drawn) : T1/2 is 2.42

Summary for this molecule, Cc1c(CO)c(=O)oc2c3c(ccc12)OC(C)(C)[C@H](OC(=O)C12CCC(C)(C(=O)O1)C2(C)C)[C@@H]3OC(=O)C12CCC(C)(C(=O)O1)C2(C)C (stereo partly drawn) : T1/2 is 3.12

Summary for this molecule, Cc1cc(=O)oc2c3c(c(CO)cc12)OC(C)(C)[C@H](OC(=O)C12CCC(C)(C(=O)O1)C2(C)C)[C@@H]3OC(=O)C12CCC(C)(C(=O)O1)C2(C)C (stereo partly drawn) : T1/2 is 0.867
